Collected apparent KD of MS2 coat protein values appear next to each entry.
Test system: MS2 coat protein
Experiment: apparent KD of MS2 coat protein; designed switch direction (-1 OFF switch, 1 ON switch): -1; higher = weaker reporter binding
Conditions: input ligand: none
quantity: apparent KD of MS2 coat protein (nM)

# sequence record, assay target, quantity, reported result
data = [
    ("AGGUCCUUCUGGAGACAUGAGGAUCACCCAUGUCGGGUCAGCGAGGAUAUCGGUCAAUAAUGUGACGAGAAGGCGCGGACCGAU [Ex NG3 #57] (Eterna round: R96, puzzle: Exclusion NG 3)", "MS2 coat protein", "apparent KD of MS2 coat protein", 19.9),
    ("UGGGUUCCAAGUGAGUCAGACAUGAGGAUCACCCAUGUAUAGCAAGCCUUAGCCGUUCGAGCAAAUGGUCUCGUCAG [Eternabot (Original) Solution 36] (Eterna round: R97, puzzle: Sensor, turn-off variant 1)", "MS2 coat protein", "apparent KD of MS2 coat protein", 1040),
    ("AUACCACGAGGAUAUCGUCUAUUCCACAUGAGGAUCACCCAUGUUAUCCAUGUUUCGUUUCGAGAAGGCGUGGGUU [JR_E5_Sub074] (Eterna round: R96, puzzle: Exclusion 5)", "MS2 coat protein", "apparent KD of MS2 coat protein", 51.6),
    ("AAGGGUGCUUUCAGAACGACAUGAGGAUCACCCAUGUAGACUGAGGAUAUCUACUUCUAAGGACGGGAGAAGGCAGUGUAAUGU [Ex NG3 #71] (Eterna round: R96, puzzle: Exclusion NG 3)", "MS2 coat protein", "apparent KD of MS2 coat protein", 22.6),
    ("AAAGAACAUGAGGAUCACCCAUGUUAGGAUAUAGUAGCAGUGUAUCUAAAGACAGCAGCUAGAAGGAGCAUGAG [Eternabot (Original) Solution 46] (Eterna round: R97, puzzle: Exclusion 1)", "MS2 coat protein", "apparent KD of MS2 coat protein", 74.3),
    ("GUUUCACAUGAGGAUCACCCAUGUGAGGAUAUACAUUUGUUAACCGUAGUUAAUAGAUGUAGAAGGCGCGUGAU [JRxlusion 4 - Jieux - Exclusion 1] (Eterna round: R97, puzzle: Exclusion 1)", "MS2 coat protein", "apparent KD of MS2 coat protein", 62.6),
    ("GUCAUGUUAGGAUAUUUCCCAGCUGAGACUACAGAUUGUAGGAAGAAGGAACAUGAGGAUCACCCAUGUGAAAA [Eternabot (L2) Solution 28] (Eterna round: R97, puzzle: Exclusion 4)", "MS2 coat protein", "apparent KD of MS2 coat protein", 39),
    ("GGUAGUUCAGAUCCACAUGAGGAUCACCCAUGUUAAAGGAUCUAGGAUAUCGGGACAUCGAUGCCCGAGAAGGAGACUUUAGCG [Eternabot solution 39] (Eterna round: R96, puzzle: Exclusion NG 3)", "MS2 coat protein", "apparent KD of MS2 coat protein", 101),
    ("CUUAAAAGGUAGGAUAUGCUAGACGAAAGUCUAGCAGAAGGACCUACAUGAGGAUCACCCAUGUGUCCAAUAAG [Mat - Exclusion 6 - Eli Mod - D23] (Eterna round: R97, puzzle: Exclusion 6)", "MS2 coat protein", "apparent KD of MS2 coat protein", 86.3),
]

Recorded values, source the supplement of paper PMC9170038.
